Biological target: T1, nSR100 (Mus musculus, UniProt Q8BKA3)
T1 construct: host or cells: mouse N2A cells
T1 sequence (Q8BKA3 1-608): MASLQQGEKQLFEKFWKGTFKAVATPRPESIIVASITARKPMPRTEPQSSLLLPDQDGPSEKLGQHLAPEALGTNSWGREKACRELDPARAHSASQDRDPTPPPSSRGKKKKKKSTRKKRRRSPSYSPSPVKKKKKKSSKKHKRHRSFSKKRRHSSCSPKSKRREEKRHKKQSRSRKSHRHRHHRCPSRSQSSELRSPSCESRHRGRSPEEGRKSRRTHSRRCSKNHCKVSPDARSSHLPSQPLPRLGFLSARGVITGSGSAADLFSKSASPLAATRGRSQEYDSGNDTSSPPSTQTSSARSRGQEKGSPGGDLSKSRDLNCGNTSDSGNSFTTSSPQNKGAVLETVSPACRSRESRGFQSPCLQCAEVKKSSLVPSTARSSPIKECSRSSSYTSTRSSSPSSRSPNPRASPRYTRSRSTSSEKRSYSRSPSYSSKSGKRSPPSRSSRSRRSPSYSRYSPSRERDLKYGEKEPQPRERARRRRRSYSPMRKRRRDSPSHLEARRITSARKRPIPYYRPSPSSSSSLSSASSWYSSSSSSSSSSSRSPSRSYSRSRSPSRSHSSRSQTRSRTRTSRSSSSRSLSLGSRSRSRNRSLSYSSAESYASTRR
Assay: AP-MS nSR100 interaction partners from mouse N2A cells (Table 5)
Type: binding
Details: bait Srrm4
measured metric: AvgP (average of the SAINT scores)
Format: numeric value only, no unit, no commentary.

Csnk2a2 (protein, UniProt O54833 1-350, looked up) Casein kinase II subunit …: MPGPAAGSRARVYAEVNSLRSREYWDYEAHVPSWGNQDDYQLVRKLGRGKYSEVFEAINITNNERVVVKILKPVKKKKIKREVKILENLRGGTNIIKLIDTVKDPVSKTPALVFEYINNTDFKQLYQILTDFDIRFYMYELLKALDYCHSKGIMHRDVKPHNVMIDHQQKKLRLIDWGLAEFYHPAQEYNVRVASRYFKGPELLVDYQMYDYSLDMWSLGCMLASMIFRKEPFFHGQDNYDQLVRIAKVLGTDELYGYLKKYHIDLDPHFNDILGQHSRKRWENFIHSENRHLVSPEALDLLDKLLRYDHQQRLTAKEAMEHPYFYPVVKEQSQPCAENTVLSSGLTAAR: 1
Necap1 (protein, UniProt Q9CR95 1-275, looked up) Adaptin ear-binding …: MAAELEYESVLCVKPDVSVYRIPPRASNRGYRASDWKLDQPDWTGRLRITSKGKIAYIKLEDKVSGELFAQAPVEQYPGIAVETVTDSSRYFVIRIQDGTGRSAFIGIGFTDRGDAFDFNVSLQDHFKWVKQETEISKESQEMDNRPKLDLGFKEGQTIKLSIGNITAKKGGASKPRASGTGGLSLLPPPPGGKVTIPPPSSSVAISNHVTPPPIPKSNHGGNDSDILLDLDSPAPVSTSAPAPVSTSNDLWGDFSTASSSVPNQAPQPSNWVQF: 1

Query: Fill in AvgP (average of the SAINT scores) for record Snrpb2 (protein, UniProt Q9CQI7 1-225, looked up) U2 small nuclear …: MDIRPNHTIYINNMNDKIKKEELKRSLYALFSQFGHVVDIVALKTMKMRGQAFVIFKELGSSTNALRQLQGFPFYGKPMRIQYAKTDSDIISKMRGTFADKEKKKEKKKAKTMEQAAAAANKKPGQGTPNAANTQGTAAPNPQVPDYPPNYILFLNNLPEETNEMMLSMLFNQFPGFKEVRLVPGRHDIAFVEFENDGQAGAARDALQGFKITPSHAMKITYAKK
Reply: 1

Taken from patent US10772928B2.
